Origin of the recorded values: patent US10034880B2

Assay: Evaluation of transferability to posterior eye segment in rats (I-1) and (I-2)
Format: in vivo
Conditions: SDT, rat, retina and plasma (retina/plasma ratio), po, 1 mg/kg, oral repetitive administration 1.0 mg/kg once a day for 21 days; 60 minutes after final administration; read-out: retina/plasma ratio
Quantity Measured: Kp at 60 min

Query: Value lookup for Kp at 60 min; key = O=C1C[C@@]2(C(=O)N1)C(=O)N(Cc1ccc(Br)cc1F)C(=O)c1cccn12
Result: ~1

---

Assay: Evaluation of transferability to posterior eye segment in rats (I-1) and (I-2)
Type: in vivo
Conditions: SDT, rat, cornea and plasma (cornea/plasma ratio); oral repetitive administration 1.0 mg/kg once a day for 21 days; 60 minutes after final administration; read-out: concentration ratio cornea to plasma (plasma:cornea:retina, plasma = 1)
Quantity Measured: Kp at 60 min

Query: What does the data say about its Kp at 60 min? Entry: O=C1C[C@@]2(C(=O)N1)C(=O)N(Cc1ccc(Br)cc1F)C(=O)c1cccn12
Result: ~1
